Target: T1, recombinant soluble human TREM2 protein (human TREM2 ECD-FlagHis) (human, UniProt Q9NZC2 19-174)
T1 sequence: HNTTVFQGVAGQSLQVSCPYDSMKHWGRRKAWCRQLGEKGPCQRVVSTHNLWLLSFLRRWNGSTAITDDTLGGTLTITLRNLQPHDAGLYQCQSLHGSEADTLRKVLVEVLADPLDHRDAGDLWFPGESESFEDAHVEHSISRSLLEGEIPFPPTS
Assay: Octet BLI binning; competitor: load Ab 24F4
reported.property: sandwich binding signal
Lab note: write the figure by itself, no unit.

# input // query sandwich binding signal value for entry 6E7 (antibody, human IgG2, V domains shown, human IgG2 from hybridoma) VH: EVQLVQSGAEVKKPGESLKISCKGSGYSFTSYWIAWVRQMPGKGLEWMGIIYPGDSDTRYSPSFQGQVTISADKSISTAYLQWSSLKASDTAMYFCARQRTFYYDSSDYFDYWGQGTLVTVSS VL: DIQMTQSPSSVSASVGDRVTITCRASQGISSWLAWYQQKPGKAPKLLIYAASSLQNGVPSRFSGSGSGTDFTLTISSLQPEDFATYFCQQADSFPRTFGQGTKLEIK
# output 0.054

# input Data request, read-out sandwich binding signal, for 24F4 (antibody, human IgG2, V domains shown, human IgG2 from hybridoma) VH: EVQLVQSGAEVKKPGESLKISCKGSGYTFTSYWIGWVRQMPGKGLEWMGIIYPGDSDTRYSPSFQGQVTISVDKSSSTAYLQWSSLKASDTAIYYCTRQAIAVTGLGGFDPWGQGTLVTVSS VL: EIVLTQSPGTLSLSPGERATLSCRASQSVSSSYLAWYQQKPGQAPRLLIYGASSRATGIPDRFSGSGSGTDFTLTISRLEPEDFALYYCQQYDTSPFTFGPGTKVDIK
# output 0.038

# input # get_value(readout='sandwich binding signal', item= 26C10 (antibody, human IgG2, V domains shown, human IgG2 from hybridoma) VH: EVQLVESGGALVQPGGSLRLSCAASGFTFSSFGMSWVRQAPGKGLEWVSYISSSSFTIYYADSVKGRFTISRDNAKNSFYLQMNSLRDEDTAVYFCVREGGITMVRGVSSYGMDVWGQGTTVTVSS VL: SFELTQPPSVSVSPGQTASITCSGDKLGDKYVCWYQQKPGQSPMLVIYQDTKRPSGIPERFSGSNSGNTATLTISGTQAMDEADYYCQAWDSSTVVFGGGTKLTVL )
# output 0.552
